FYI, the data here is from patent US20220267421A1.

Collected Kd values appear next to each entry.
Biological target: T1, cynomolgus MSLN-His-Avi (cynomolgus, single biotin (BirA) in the biotinylated form)
T1 construct: Monomeric, made in HEK293-6E; also called cMSLN-His-Avi; cyno MSLN-His-Avi
T1 chain: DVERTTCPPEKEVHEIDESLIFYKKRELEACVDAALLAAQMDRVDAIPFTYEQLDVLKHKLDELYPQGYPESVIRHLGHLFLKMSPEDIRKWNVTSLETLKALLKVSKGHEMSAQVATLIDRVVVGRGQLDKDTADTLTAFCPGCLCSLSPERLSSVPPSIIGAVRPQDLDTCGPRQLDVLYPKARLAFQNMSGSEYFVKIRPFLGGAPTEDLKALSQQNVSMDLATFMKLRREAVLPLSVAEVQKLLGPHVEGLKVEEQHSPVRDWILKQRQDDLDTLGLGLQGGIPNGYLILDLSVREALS
Assay: SPR (Biacore), mAb^2 captured on Protein G, MSLN in solution injected
Write the number in nM without appending the unit.

Reference set (2 entries):
{"BINDER": "FS22-053-008-AA/FS28-024-052 mAb^2 (bispecific antibody, human IgG1, kappa, L234A L235A, V domains shown, also called FS28-024-52) VH: EVQLLESGGGLVQPGGSLRLSCAASGFTLSYSSMSWVRQAPGKGLEWVSFITPSTGYTHYADSVKGRFTISRDNSKNTLYLQMNSLRAEDTAVYYCARRALLFDYWGQGTLVTVSS VL: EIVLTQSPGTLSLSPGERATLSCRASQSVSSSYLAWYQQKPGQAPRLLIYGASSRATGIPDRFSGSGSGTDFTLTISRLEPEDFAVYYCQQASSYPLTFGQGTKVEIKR", "UNIT_STRING": "nM", "Kd": 185}
{"BINDER": "FS22-053-008-AA/FS28-024-051 mAb^2 (bispecific antibody, human IgG1, kappa, L234A L235A, V domains shown, also called FS28-024-51) VH: EVQLLESGGGLVQPGGSLRLSCAASGFTLSYSSMSWVRQAPGKGLEWVSFITPSTGYTHYADSVKGRFTISRDNSKNTLYLQMNSLRAEDTAVYYCARRALIFDYWGQGTLVTVSS VL: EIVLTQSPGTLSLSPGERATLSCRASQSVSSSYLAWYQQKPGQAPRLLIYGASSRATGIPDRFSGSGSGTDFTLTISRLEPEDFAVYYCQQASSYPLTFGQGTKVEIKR", "UNIT_STRING": "nM", "Kd": 148}

Please turn your attention to the following entry.
Endpoint output: Kd of FS22-053-008-AA/FS28-256-027 mAb^2 (bispecific antibody, human IgG1, kappa, L234A L235A, V domains shown) VH: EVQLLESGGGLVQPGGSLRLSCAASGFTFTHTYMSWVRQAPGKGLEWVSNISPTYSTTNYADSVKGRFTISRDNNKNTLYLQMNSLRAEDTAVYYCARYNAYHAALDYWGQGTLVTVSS VL: EIVLTQSPGTLSLSPGERATLSCRASQSVSSSYLAWYQQKPGQAPRLLIYGASSRATGIPDRFSGSGSGTDFTLTISRLEPEDFAVYYCQQTVPYPYTFGQGTKVEIKR . Value? 0.7
